Test: In vivo pharmacokinetics following subcutaneous dosing
Set-up: species or system male SD rats
Settings: male, SD, rat, plasma, sc, 10 mg/kg
TEST_READOUT: Cmax (ng/mL)
Give the quantity in ng/mL, number only.

Which Cmax reading was recorded for the molecule `CCOc1ccc(C[C@@H](N)C(=O)N[C@@H](Cc2ccccc2)C(=O)NC2CCN(C(=N)N)CC2)cc1.O=C(O)C(F)(F)F.O=C(O)C(F)(F)F` ?
974

---

Biological target: factor XIa (Homo sapiens, UniProt P03951)
Sequence (P03951 388-625 limits assumed): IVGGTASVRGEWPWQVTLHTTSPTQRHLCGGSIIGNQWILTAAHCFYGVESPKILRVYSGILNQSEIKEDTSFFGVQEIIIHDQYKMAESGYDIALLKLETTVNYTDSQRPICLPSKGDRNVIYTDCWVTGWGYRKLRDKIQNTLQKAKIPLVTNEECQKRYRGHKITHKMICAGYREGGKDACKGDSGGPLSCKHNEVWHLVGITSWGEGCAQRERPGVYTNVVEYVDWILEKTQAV
Sequence (P03951 19-387 partner limits assumed): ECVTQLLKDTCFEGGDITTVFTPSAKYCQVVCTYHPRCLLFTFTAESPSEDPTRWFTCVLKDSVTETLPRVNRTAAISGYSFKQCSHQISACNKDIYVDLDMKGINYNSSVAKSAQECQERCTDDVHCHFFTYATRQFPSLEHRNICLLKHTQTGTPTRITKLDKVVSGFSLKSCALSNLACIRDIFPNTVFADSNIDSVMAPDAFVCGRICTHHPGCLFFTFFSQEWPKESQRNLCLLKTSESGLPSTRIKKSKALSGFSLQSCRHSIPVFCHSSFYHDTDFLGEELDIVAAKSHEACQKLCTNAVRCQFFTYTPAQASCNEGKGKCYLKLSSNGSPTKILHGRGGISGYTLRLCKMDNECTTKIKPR
pIC50: −log10 of the molar value.
TEST_READOUT: pIC50

# query: pIC50 | item CCOc1ccc(C[C@@H](N)C(=O)N[C@@H](Cc2ccccc2)C(=O)NC2CCN(C(=N)N)CC2)cc1.O=C(O)C(F)(F)F.O=C(O)C(F)(F)F [VA999272] | system: factor XIa (Homo sapiens, UniProt P03951)
< 5.00

---

Molecular target: human PKal (plasma kallikrein) (Homo sapiens, UniProt P03952)
Sequence (P03952 391-638 limits assumed): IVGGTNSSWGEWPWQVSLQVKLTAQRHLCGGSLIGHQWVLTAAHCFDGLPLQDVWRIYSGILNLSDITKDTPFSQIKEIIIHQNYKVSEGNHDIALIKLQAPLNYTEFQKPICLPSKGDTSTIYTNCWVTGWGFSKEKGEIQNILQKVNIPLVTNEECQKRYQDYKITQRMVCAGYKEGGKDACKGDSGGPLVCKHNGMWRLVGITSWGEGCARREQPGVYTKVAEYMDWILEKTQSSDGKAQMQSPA
Sequence (P03952 20-390 partner limits assumed): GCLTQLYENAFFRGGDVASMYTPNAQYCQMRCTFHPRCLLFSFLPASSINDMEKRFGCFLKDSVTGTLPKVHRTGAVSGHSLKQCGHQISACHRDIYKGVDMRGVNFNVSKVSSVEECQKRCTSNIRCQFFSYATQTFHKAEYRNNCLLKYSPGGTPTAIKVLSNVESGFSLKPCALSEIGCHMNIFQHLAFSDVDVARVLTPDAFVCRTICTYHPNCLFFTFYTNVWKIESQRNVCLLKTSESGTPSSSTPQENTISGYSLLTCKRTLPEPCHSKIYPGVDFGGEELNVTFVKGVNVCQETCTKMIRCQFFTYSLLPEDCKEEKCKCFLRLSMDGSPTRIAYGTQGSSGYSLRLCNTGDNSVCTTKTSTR
Test: PKal protease activity assay, fluorogenic substrate H-D-Pro-Phe-Arg-AFC
TEST_READOUT: IC50 (nM)
Give the quantity in nM, number only.

Which IC50 reading was recorded for the compound CCOc1ccc(C[C@@H](N)C(=O)N[C@@H](Cc2ccccc2)C(=O)NC2CCN(C(=N)N)CC2)cc1.O=C(O)C(F)(F)F.O=C(O)C(F)(F)F [VA999272] ?
3.98

---

Molecular target: thrombin (Homo sapiens)
TEST_READOUT: IC50 (µM)
Give the quantity in µM, number only.

# query: IC50 | item CCOc1ccc(C[C@@H](N)C(=O)N[C@@H](Cc2ccccc2)C(=O)NC2CCN(C(=N)N)CC2)cc1.O=C(O)C(F)(F)F.O=C(O)C(F)(F)F [VA999272] | system: thrombin (Homo sapiens)
9.1

---

Assay: In vivo pharmacokinetics following subcutaneous dosing
Design: species or system male SD rats
Details: male, SD, rat, plasma, sc, 10 mg/kg
TEST_READOUT: half-life (h)
Give the quantity in h, number only.

Which half-life reading was recorded for the compound `CCOc1ccc(C[C@@H](N)C(=O)N[C@@H](Cc2ccccc2)C(=O)NC2CCN(C(=N)N)CC2)cc1.O=C(O)C(F)(F)F.O=C(O)C(F)(F)F` ?
3.55

---

Biological target: KLK1 tissue kallikrein (Homo sapiens, UniProt P06870)
Sequence (P06870 25-262): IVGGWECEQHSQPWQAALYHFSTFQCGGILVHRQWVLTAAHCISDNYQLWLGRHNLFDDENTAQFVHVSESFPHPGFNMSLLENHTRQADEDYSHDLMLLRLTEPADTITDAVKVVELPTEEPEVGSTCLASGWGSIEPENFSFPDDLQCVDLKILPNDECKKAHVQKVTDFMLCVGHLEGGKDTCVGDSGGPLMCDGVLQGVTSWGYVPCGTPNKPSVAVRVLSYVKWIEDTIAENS
TEST_READOUT: IC50 (µM)
Give the quantity in µM, number only.

Which IC50 reading was recorded for the compound CCOc1ccc(C[C@@H](N)C(=O)N[C@@H](Cc2ccccc2)C(=O)NC2CCN(C(=N)N)CC2)cc1.O=C(O)C(F)(F)F.O=C(O)C(F)(F)F [VA999272] ?
33.5
